All figures here come from PubChem BioAssay AID720518.

# assayProcedure: qHTS for Inhibitors of Cell Surface uPA Generation: Wild-type Protective Antigen (WT-PrAg) Counterscreen for Cherry-picked Compounds
# testContext: cells, WT protective antigen toxicity counterscreen; series mostly up to 115 µM
Records with an inconclusive call do not appear. Calls of active or inactive are those of the source. Calls follow the shape of the full dose curve.
recordedEndpoint: outcome

COc1ccc(Cc2nnc(Nc3ccc(C)cc3)o2)cc1OC; inactive
COc1ccc2[nH]cc(S(=O)(=O)c3ccc(C(C)C)cc3)c(=O)c2c1; inactive
O=C(O)c1cc(N=Nc2c(O)[nH]c3ccc([N+](=O)[O-])cc23)ccc1Cl; inactive
Cc1nc(C(=O)N2CCC(n3nccc3NC(=O)Nc3ccccc3Cl)CC2)cs1; inactive
CCC1(CC)NC(=O)N(CC(=O)OCC(=O)c2cc(C)c(C)cc2C)C1=O; inactive
CC1(CC(=O)N/N=C/c2cc(Br)c(O)cc2O)OCCO1; inactive
CN(C)c1ccc(S(=O)(=O)N2CCC(Cc3ccccc3)CC2)cn1; inactive
CC1(C)CC(=O)C([N+](=O)[O-])=C(NCCCC(=O)O)C1; inactive
Nc1cc(=O)[nH]c(SCC(=O)Nc2cccc([N+](=O)[O-])c2)n1; inactive
CC(=O)Oc1ccc(OC(C)=O)c(SCCCCCCl)c1; inactive

Input line: Dear colleague, I am looking for the recorded outcome of the following molecule: COc1ccc(CC(=O)OCC(=O)NNC(=O)c2ccccc2)cc1
Output line: inactive

Input line: Same question, CCN(CC)S(=O)(=O)c1ccc(NC(=S)Nc2ccc(F)cc2)cc1 this time
Output line: inactive

Input line: Same question, Cc1c(NC(=O)C(C)OC(=O)CCC2CCCC2)c(=O)n(-c2ccccc2)n1C (centres undefined) this time
Output line: inactive

Input line: Same question, O=C(COc1ccccc1F)NCC(c1ccc(F)cc1)N1CCOCC1 (centres undefined) this time
Output line: inactive

Input line: Same question, CN(Cc1ccc(C(C)(C)C)cc1)C(=O)Cc1ccc(S(=O)(=O)N2CCOCC2)s1 this time
Output line: inactive

Input line: Same question, CCOC(=O)Cn1c(=O)cc(C)c2cccc(C)c21 this time
Output line: inactive

Input line: Same question, CC/C(=N\Nc1ccccc1[N+](=O)[O-])c1ccc(O)cc1 this time
Output line: inactive

Input line: Same question, CC(OC(=O)c1cccc(-n2cnnn2)c1)C(=O)Nc1ccc(F)c(F)c1F (centres undefined) this time
Output line: inactive

###

# assayProcedure: qHTS for Inhibitors of Cell Surface uPA Generation: Wild-type Protective Antigen (WT-PrAg) Counterscreen for Cherry-picked Compounds
# testContext: cells, WT protective antigen toxicity counterscreen; series mostly up to 115 µM
Records with an inconclusive call do not appear. Calls of active or inactive are those of the source. Calls follow the shape of the full dose curve.
recordedEndpoint: outcome

COc1ccc(C(=O)NNC(=O)Cc2ccc(Cl)cc2)cc1; inactive
CCOc1ccc(CN2CCN(C(=O)Cc3ccccc3)CC2)cc1; inactive
CC(=O)N1CCN(C(=O)CSc2cc(C)c(Br)cc2C)CC1; inactive
COc1ccc(C2=C/C(=C\c3ccccc3OC(C)=O)C(=O)O2)cc1; inactive

Input line: Dear colleague, I am looking for the recorded outcome of the following compound: CCN1CCN(Cc2ccc(NC(=O)c3cc(NC(=O)c4cncc(-c5cccs5)c4)cc(OC)c3)cc2C(F)(F)F)CC1
Output line: inactive

###

# assayProcedure: qHTS for Inhibitors of Cell Surface uPA Generation: Wild-type Protective Antigen (WT-PrAg) Counterscreen for Cherry-picked Compounds
# testContext: cells, WT protective antigen toxicity counterscreen; series mostly up to 115 µM
Inconclusive results are not listed. Activity calls are given as the source filed them. The call rests on the fitted dose curve.
recordedEndpoint: outcome

Here's what some known entries look like.
CC1CC(=O)Nc2ccccc2N1C(=O)Cn1cnc2ccc(Br)cc2c1=O (stereo not drawn); inactive
Cc1ccc(NC2CCCN(C(=O)Cc3nonc3C)C2)cc1C (stereo not drawn); inactive
O=C(c1ccco1)N1CCN(c2ncccn2)CC1; inactive
Cc1ccccc1-c1nnc(SCC(=O)NCC2CCCO2)o1 (stereo not drawn); inactive
O=C1CCCC/C1=C\Nc1ccc(S(=O)(=O)Nc2cnc3ccccc3n2)cc1; inactive
O=C(COc1cccc2ccccc12)NNC(=O)c1cnccn1; inactive

Input line: Dear colleague, I am looking for the recorded outcome of the following molecule: Cc1c(C(=O)N2CCN(S(=O)(=O)c3cccs3)CC2)oc2ccc(F)cc12
Output line: inactive

Input line: Same question, Cc1ccccc1O this time
Output line: inactive

Input line: Same question, CCOCCCn1c(SCC(=O)Nc2cc(OC)ccc2OC)nc2ccccc2c1=O this time
Output line: inactive
